activation values, listed per item
Biological target: CCR1 (Homo sapiens, UniProt P32246)
Construct: expressed in transfected cells
Sequence (P32246 whole entry): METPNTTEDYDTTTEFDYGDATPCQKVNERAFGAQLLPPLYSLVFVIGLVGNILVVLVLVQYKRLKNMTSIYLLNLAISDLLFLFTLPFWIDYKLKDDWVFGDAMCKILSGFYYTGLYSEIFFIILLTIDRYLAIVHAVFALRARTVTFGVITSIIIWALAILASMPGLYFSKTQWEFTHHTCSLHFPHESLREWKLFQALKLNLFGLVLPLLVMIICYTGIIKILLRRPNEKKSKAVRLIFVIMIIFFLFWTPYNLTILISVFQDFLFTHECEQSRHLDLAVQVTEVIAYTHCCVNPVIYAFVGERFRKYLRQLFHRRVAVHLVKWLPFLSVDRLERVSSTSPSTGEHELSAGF
Assay: Figure S2a opioid peptide screen on chemokine receptors
Type: cell-based
Parameters: dose or concentration left out as unconfirmed
Conditions: replicate 3, read-out: CCR1 activity, ctrl+ = 100
Starred links: 1 amine or outer side, 2 acyl side, 3 side chain; linkers in the order of their positions; H or OH if unused. Non-standard residues stand in square brackets, D forms with d. Residues, ends and D or L forms follow the SMILES beside them. X1 = N[C@@H](Cc1ccccc1)CN(CC(=O)[*:2])[*:1]
Measure: activation (%)

{"Molecule": "C[C@H](NC(=O)CNC(=O)[C@@H](NC(=O)[C@H](Cc1ccccc1)NC(=O)CNC(=O)CNC[C@@H](N)Cc1ccccc1)[C@@H](C)O)C(=O)N[C@@H](CCCNC(=N)N)C(=O)N[C@@H](CCCCN)C(=O)N[C@@H](CO)C(=O)N[C@@H](C)C(=O)N[C@@H](CCCNC(=N)N)C(=O)N[C@@H](CCCCN)C(N)=O [FG Nociceptin 1-13] (H-[X1]GFTGARKSARK-NH2)", "Result value": -16.6}
{"Molecule": "CSCC[C@H](NC(=O)[C@H](Cc1ccccc1)NC(=O)CNC(=O)CNC(=O)[C@@H](N)Cc1ccc(O)cc1)C(=O)N[C@@H](CCCNC(=N)N)C(=O)N[C@@H](CCCNC(=N)N)C(=O)N[C@H](C(N)=O)C(C)C", "Result value": -9.95}
{"Molecule": "CC(C)C[C@H](NC(=O)[C@H](Cc1ccccc1)NC(=O)CNC(=O)CNC(=O)[C@@H](N)Cc1ccc(O)cc1)C(=O)N[C@@H](CCCN=C(N)N)C(=O)N[C@@H](CCCN=C(N)N)C(=O)N[C@@H](CCC(N)=O)C(=O)N[C@@H](Cc1ccccc1)C(=O)N[C@@H](CCCCN)C(=O)N[C@H](C(=O)N[C@H](C(=O)N[C@H](C(=O)O)[C@@H](C)O)C(C)C)C(C)C", "Result value": 27.5}
{"Molecule": "C[C@H](NC(=O)CNC(=O)[C@@H](NC(=O)[C@H](Cc1ccccc1)NC(=O)CNC(=O)CNC(=O)[C@@H](N)Cc1ccccc1)[C@@H](C)O)C(=O)N[C@@H](CCCNC(=N)N)C(=O)N[C@@H](CCCCN)C(=O)N[C@@H](CO)C(=O)N[C@@H](C)C(=O)N[C@@H](CCCNC(=N)N)C(=O)N[C@@H](CCCCN)C(N)=O", "Result value": -35.9}
{"Molecule": "CC[C@H](C)[C@H](NC(=O)[C@H](CCCNC(=N)N)NC(=O)[C@H](CCCNC(=N)N)NC(=O)[C@H](CC(C)C)NC(=O)[C@H](Cc1ccccc1)NC(=O)CNC(=O)CNC(=O)[C@@H](N)Cc1ccc(O)cc1)C(=O)N[C@@H](CCCNC(=N)N)C(=O)N1CCC[C@H]1C(=O)N[C@@H](CCCCN)C(=O)N[C@@H](CC(C)C)C(=O)N[C@@H](CCCCN)C(=O)N[C@@H](Cc1c[nH]c2ccccc12)C(=O)N[C@@H](CC(=O)O)C(=O)N[C@@H](CC(N)=O)C(=O)N[C@@H](CCC(N)=O)C(=O)O", "Result value": 6.56}

###

Target: CCR4 (Homo sapiens, UniProt P51679)
Construct: expressed in transfected cells
Sequence (P51679 whole entry): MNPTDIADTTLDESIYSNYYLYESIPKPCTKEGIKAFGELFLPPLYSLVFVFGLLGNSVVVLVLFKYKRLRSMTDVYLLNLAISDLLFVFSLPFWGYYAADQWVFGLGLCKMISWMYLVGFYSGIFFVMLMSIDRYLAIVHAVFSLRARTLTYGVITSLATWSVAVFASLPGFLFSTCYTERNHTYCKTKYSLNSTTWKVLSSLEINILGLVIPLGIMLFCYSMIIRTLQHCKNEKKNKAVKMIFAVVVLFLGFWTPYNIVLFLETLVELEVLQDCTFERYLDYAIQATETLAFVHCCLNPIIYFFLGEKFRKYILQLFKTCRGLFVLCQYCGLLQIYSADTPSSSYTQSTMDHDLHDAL
Assay: Figure S2a opioid peptide screen on chemokine receptors
Assay type: cell-based
Design: dose or concentration left out as unconfirmed
Conditions: replicate 3, read-out: CCR4 activity, ctrl+ = 100
activation values, listed per item

{"Compound": "CSCC[C@H](NC(=O)[C@H](Cc1ccccc1)NC(=O)CNC(=O)CNC(=O)[C@@H](N)Cc1ccc(O)cc1)C(=O)N[C@@H](CCCNC(=N)N)C(=O)N[C@@H](CCCNC(=N)N)C(=O)N[C@H](C(N)=O)C(C)C [Adrenorphin]", "activation": "2.73%"}
{"Compound": "C[C@H](NC(=O)CNC(=O)[C@@H](NC(=O)[C@H](Cc1ccccc1)NC(=O)CNC(=O)CNC(=O)[C@@H](N)Cc1ccccc1)[C@@H](C)O)C(=O)N[C@@H](CCCNC(=N)N)C(=O)N[C@@H](CCCCN)C(=O)N[C@@H](CO)C(=O)N[C@@H](C)C(=O)N[C@@H](CCCNC(=N)N)C(=O)N[C@@H](CCCCN)C(N)=O [Nociceptin 1-13]", "activation": "0.411%"}
{"Compound": "CC[C@H](C)[C@H](NC(=O)[C@H](CCCNC(=N)N)NC(=O)[C@H](CCCNC(=N)N)NC(=O)[C@H](CC(C)C)NC(=O)[C@H](Cc1ccccc1)NC(=O)CNC(=O)CNC(=O)[C@@H](N)Cc1ccc(O)cc1)C(=O)N[C@@H](CCCNC(=N)N)C(=O)N1CCC[C@H]1C(=O)N[C@@H](CCCCN)C(=O)N[C@@H](CC(C)C)C(=O)N[C@@H](CCCCN)C(=O)N[C@@H](Cc1c[nH]c2ccccc12)C(=O)N[C@@H](CC(=O)O)C(=O)N[C@@H](CC(N)=O)C(=O)N[C@@H](CCC(N)=O)C(=O)O [Dynorphin A]", "activation": "5%"}
{"Compound": "CC(C)C[C@H](NC(=O)[C@H](Cc1ccccc1)NC(=O)CNC(=O)CNC(=O)[C@@H](N)Cc1ccc(O)cc1)C(=O)N[C@@H](CCCN=C(N)N)C(=O)N[C@@H](CCCN=C(N)N)C(=O)N[C@@H](CCC(N)=O)C(=O)N[C@@H](Cc1ccccc1)C(=O)N[C@@H](CCCCN)C(=O)N[C@H](C(=O)N[C@H](C(=O)N[C@H](C(=O)O)[C@@H](C)O)C(C)C)C(C)C [Dynorphin B]", "activation": "5.93%"}
